protocol-details: M. tuberculosis growth inhibition, HTS (AID 449762);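 note: bacterial growth assessed after seven days of incubation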
experimental-conditions: M. tuberculosis H37Rv growth inhibition, 7H9 media; at 25 µM; stronger effect = higher value
Out of some 330,000 compounds screened, about 1,900 (0.58%) were called active. Not shown: some 4% with an inconclusive outcome. These entries were drawn from the full list. Potency and affinity values are given separately.
quantity-kind: inhibition (%)
I only need the number, in %, no unit after it.

**Q:** Entry `CCOC(=O)c1c(NC(=O)CSc2ncccn2)sc2c1CC(C)(C)NC2(C)C` : reported inhibition = ?
**A:** 8.68

**Q:** Please give the result for `CCOC(=O)c1c(NC(=O)CSc2nc3ccccc3[nH]2)sc2c1CC(C)(C)NC2(C)C` too.
**A:** 35.9

**Q:** Please give the result for `COc1ccc(S(=O)(=O)N(Cc2ccc(OC)c(OC)c2)Cc2ccco2)cc1` too.
**A:** 12.4

**Q:** Please give the result for `CSc1ncccc1C(=O)NCc1ccc(C)cc1` too.
**A:** -4.41

**Q:** Please give the result for `Cc1cc(-c2cc(-c3ccc(Cl)cc3)on2)nc(NC2CCCC2)n1` too.
**A:** 31.4

**Q:** Please give the result for CC1CCCN(C(=O)CN2C(=O)NC(C)(c3ccc4ccccc4c3)C2=O)C1 (configuration not stated) too.
**A:** 3.55

**Q:** Please give the result for `C=CCc1c(C)nc(SC)nc1Nc1ccc(C)cc1` too.
**A:** 56

**Q:** Please give the result for CC1CCCCN1C(=O)C1CCN(S(=O)(=O)c2ccc(-n3cnnn3)cc2)CC1 (configuration not stated) too.
**A:** -3.02

**Q:** Please give the result for `CCOc1cc(N2CCOCC2)c(OCC)cc1NC(=O)c1ccc(OC)c(S(=O)(=O)N2CCOCC2)c1` too.
**A:** -2.5

**Q:** Please give the result for O=C(N/N=C/C=C/c1ccco1)C(O)c1ccccc1 (configuration not stated) too.
**A:** 50.7

**Q:** Please give the result for `O=c1cc(O)c2sc3nc(-c4ccccc4)cc(C(F)(F)F)c3c2[nH]1` too.
**A:** 5.22

**Q:** Please give the result for `Cc1cc(C(F)(F)F)c2c(n1)sc1c(O)cc(=O)[nH]c12` too.
**A:** -2.51

----------
protocol-details: M. tuberculosis growth inhibition, HTS (AID 449762);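 note: bacterial growth assessed after seven days of incubation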
experimental-conditions: M. tuberculosis H37Rv growth inhibition, 7H9 media; at 25 µM; stronger effect = higher value
About 1,900 (0.58%) of roughly 330,000 compounds were called active. Inconclusive results (about 4%) are left out. Only a sample is shown. Results with a measured potency or affinity are listed apart.
Provide the reported inhibition of each item.

**Q:** Entry `c1cc2c3c(cccc3c1)C(N1CCOCC1)=N2` : reported inhibition = ?
**A:** -3.61% (inactive)

**Q:** Please give the result for `CCOC(=O)[C@@H]1[C@H]2COc3cc(OC)ccc3[C@H]2N2C(=O)N(c3ccc(C(F)(F)F)cc3)C(=O)[C@@]12C` too.
**A:** 6.64% (inactive)

**Q:** Please give the result for `COc1ccc(NC(=O)CNC(=O)Cn2cnc3sc4c(c3c2=O)CCCC4)cc1OC` too.
**A:** 9.66% (inactive)

**Q:** Please give the result for `COc1ccc(NC(=O)CCN2CCN(S(=O)(=O)c3cc(Cl)ccc3Cl)CC2)cc1` too.
**A:** -9.19% (inactive)

**Q:** Please give the result for `COC(=O)c1c(NC(=O)C(=O)N2CCCCC2)sc2c1CC(C)(C)OC2` too.
**A:** 5.56% (inactive)

**Q:** Please give the result for `CC(=O)Nc1nonc1NC(=O)CSc1ccccn1` too.
**A:** -2.12% (inactive)

**Q:** Please give the result for `CCc1cc(C(=O)OCC(=O)N2CCC(c3ccccc3)=N2)sc1C` too.
**A:** 9.02% (inactive)

**Q:** Please give the result for `COc1cccc(NC(=O)CNC(=O)Cn2cnc3sc(C)c(C)c3c2=O)c1` too.
**A:** -5.96% (inactive)

**Q:** Please give the result for Cc1nc(NC(=O)COC(=O)C2CC2C)c(Cl)cc1Cl (stereo not drawn) too.
**A:** -3.52% (inactive)

**Q:** Please give the result for `COc1ccc(S(=O)(=O)Cc2ccc(C(=O)N3CCN(C4CCCCC4)CC3)o2)cc1` too.
**A:** -3.99% (inactive)

**Q:** Please give the result for O=C(NCCc1ccccc1Cl)C1CCC(=O)N(C2CCCCCC2)C1 (stereo not drawn) too.
**A:** 4.37% (inactive)

**Q:** Please give the result for CCCCCCCNC(=O)C1(CC2CC(c3cccc(Br)c3)=NO2)CCN(C(=O)Cc2ccc(F)cc2)CC1 (stereo not drawn) too.
**A:** 1.04% (inactive)

**Q:** Please give the result for `CC(=O)NNc1nc2ccccc2s1` too.
**A:** -19.1% (inactive)

**Q:** Please give the result for `CCOC(=O)[C@@H]1[C@H]2COc3cc(OC)ccc3[C@@H]2N2C(=O)N(c3ccc(C(F)(F)F)cc3)C(=O)[C@]12C` too.
**A:** 1.49% (inactive)

**Q:** Please give the result for `Fc1ccc(CSc2ccc3nnc(-c4cccnc4)n3n2)cc1` too.
**A:** -5.63% (inactive)

**Q:** Please give the result for `COc1cc2cc(Oc3ccc4ccc(=O)oc4c3)c(=O)oc2cc1O[C@@H]1O[C@H](CO)[C@@H](O)[C@H](O)[C@H]1O` too.
**A:** -3.36% (inactive)

**Q:** Please give the result for `C/C(=N/NC(=O)c1ccccn1)c1ccncc1` too.
**A:** 39.2% (inactive)

**Q:** Please give the result for `O=C(c1ccoc1)N1CCC(CO)(CCc2ccccc2)CC1` too.
**A:** -5.69% (inactive)

**Q:** Please give the result for `COc1ccc2nc(NNC(=O)COc3ccccc3)sc2c1` too.
**A:** 6.88% (inactive)

**Q:** Please give the result for `COc1ccccc1C(=O)COC(=O)Cn1nc(C)c([N+](=O)[O-])c1C` too.
**A:** -2.3% (inactive)

**Q:** Please give the result for `CCOC(=O)Cc1csc(NS(=O)(=O)Cc2ccccc2)n1` too.
**A:** -4.69% (inactive)

**Q:** Please give the result for `COc1ccc(OC)c(S(=O)(=O)N2CCN(C(=O)CCc3ccccc3)CC2)c1` too.
**A:** -9.07% (inactive)

**Q:** Please give the result for CC1Cc2ccccc2N1CC(=O)Nc1cccc(S(N)(=O)=O)c1 (stereo not drawn) too.
**A:** 3.61% (inactive)
